test system: NCI-H460 lung; test: NCI tumour cell line growth inhibition, 48 h
VALUE_KIND: TGI

# TGI measured on NCI-H460 lung for item COc1cc([C@@H]2c3cc4c(cc3[C@@H](c3c(O)cc(O)c5c3O[C@H](c3ccc(O)c(O)c3)[C@H](OC(=O)c3cc(O)c(O)c(O)c3)C5)[C@H]3COC(=O)[C@H]23)OCO4)cc(OC)c1O = > 100 µM

GET /values?item= O=C1/C(=C/c2ccc(Cl)c(Cl)c2)CNC/C1=C\c1ccc(Cl)c(Cl)c1 &system= NCI-H460 lung returns TGI: 29.1 µM

Observed TGI on NCI-H460 lung, entry O=C(c1nn(-c2ccc(Cl)cc2)cc1O)n1nc(C(F)(F)F)cc1-c1ccccc1 , equals > 59.3 µM

Kindly note: NCI-H460 lung, COc1ccccc1NC(=O)C1=C(C)NC(C)=C(C(=O)Nc2ccccc2OC)C1c1cccc2ccccc12 , TGI value reported: > 100 µM
